Entry source: patent US20220340598A1

molecular target: human FGFR3 V555M enzyme (cytoplasmic domain carrying V555M mutation) (Homo sapiens, UniProt P22607, V555M); construct: human FGFR3 V555M enzyme (cytoplasmic domain carrying V555M mutation, from Carna Biosciences); test: FGFR3 V555M mobility shift assay (enzymatic assay); conditions: 30 μM ATP, 45 minutes at 30° C., Caliper EZ reader II
Sequence (P22607 397-806 V555M): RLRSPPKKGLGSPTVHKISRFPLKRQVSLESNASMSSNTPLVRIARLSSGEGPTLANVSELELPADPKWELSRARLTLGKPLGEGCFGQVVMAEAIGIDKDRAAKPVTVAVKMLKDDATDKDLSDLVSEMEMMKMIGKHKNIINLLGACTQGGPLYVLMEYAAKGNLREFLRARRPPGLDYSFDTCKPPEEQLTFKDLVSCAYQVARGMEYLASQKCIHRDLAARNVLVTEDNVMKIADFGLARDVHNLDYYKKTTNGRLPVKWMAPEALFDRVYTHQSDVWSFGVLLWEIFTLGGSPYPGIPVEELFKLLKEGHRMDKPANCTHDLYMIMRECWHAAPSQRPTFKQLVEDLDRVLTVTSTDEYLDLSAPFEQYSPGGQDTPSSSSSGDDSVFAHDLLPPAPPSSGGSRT
Observation type: IC50 (nM)
Hi! Could you send only the number? It should be in nM, unit omitted.

Past entries and their recorded results:
• CCn1cc2[nH]c(=O)c(-c3nc4cc(OC)c(OC)cc4[nH]3)c(NC(C)c3cocn3)c2n1 (single isomer, unassigned) [Compound 5C] = 315
• COc1cc2nc(-c3c(NC(c4ncccn4)C(C)C)c4nn(C)cc4[nH]c3=O)[nH]c2cc1OC (single isomer, unassigned) = 1.14
• COc1ccc2nc(-c3c(N[C@H](c4ncccn4)C(C)C)c4nn(C)cc4[nH]c3=O)[nH]c2c1 (single isomer, unassigned) = 0.753
• CC[C@H](Nc1c(-c2nc3ccc(OC)cc3[nH]2)c(=O)[nH]c2cn(C)nc12)c1ncccn1 (single isomer, unassigned) = 342
• CCn1cc2[nH]c(=O)c(-c3nc4cc(OC)c(OC)cc4[nH]3)c(NC(C)c3cocn3)c2n1 (single isomer, unassigned) [Compound 5A] = 1.56

Query: Requested field: IC50. Item: CC(C)C(Nc1c(-c2nc3ccc(C(=O)N(C)C)cc3[nH]2)c(=O)[nH]c2cn(C)nc12)c1ncccn1 (single isomer, unassigned)
Response: 0.673
